Assay: cell survival after pyrene fatty acid photosensitization – ZR-82 cells, Analyticon library, screen 2, phospholipid biosynthesis inhibitor project, primary screen (AID 1347383);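 also: survival reflects blocked phospholipid synthesis cutting uptake of the phototoxic fatty acid; compound and fatty acid exposure 3 h then viability read next day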
Details: ZR-82 CHO cells, pyrene-fatty acid UV killing, CellTiter Blue, at 10 µM; peroxisome-deficient CHO-K1 variant, with DGAT-1, DGAT-2 and ACAT inhibitors unless noted
The source made the active and inactive calls.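 The calls were made as follows: active = cell survival after UV exposure 2 SD above solvent-only control wells at 10 µM, confirmed on one or two repeats; inactive = the rest.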
measured-quantity: outcome

>>> result("CN1Cc2c(ccc3c2OCO3)[C@@H]2[C@H]1c1cc3c(cc1C[C@@H]2O)OCO3")
"inactive"
>>> result("C[C@]12CC[C@@H](O[C@@H]3O[C@H](CO)[C@@H](O)[C@H](O)[C@H]3O)C[C@@]1(O)CCC1C2CC[C@]2(C)[C@@H](C3=CC(=O)OC3)CC[C@]12O (stereo partly drawn)")
"inactive"
>>> result("COc1ccc(C23CCC(=O)C=C2N(C)CC3)cc1OC (stereo not drawn)")
"inactive"

Measured values drawn from PubChem BioAssay AID1347383 for this set.
